# Test system: 621-102 (TSC2-deficient)
# Experiment summary: relative viability vs DMSO; higher = less cytotoxic;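 further: immortalized renal angiomyolipoma cells stably carrying empty vector or TSC2, dosed in 384-well plates in DMEM, viability normalized to vehicle-treated wells within each plate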
# Stated conditions: 0.0001 µM; serum: 10% FBS; 72 h
Structures can show the parent of a compound that is named as a salt.
Examples of compounds with documented relative viability follow.
Property measured: relative viability (%)

• CNCCCC12CCC(c3ccccc31)c1ccccc12 [Maprotiline HCl] = 124
• CNC(=O)CN1CCC(Oc2cc3c(Nc4cccc(Cl)c4F)ncnc3cc2OC)CC1 [AZD8931] = 106
• CC(=O)SCC(Cc1ccccc1)C(=O)NCC(=O)OCc1ccccc1 (stereo not drawn) [Racecadotril] = 134

* * *

# Tested on: 621-103 (TSC2-rescued)
# Experiment summary: relative viability vs DMSO; higher = less cytotoxic
# Stated conditions: 0.0001 µM; serum: 10% FBS; 72 h
Where a name gives a salt, the structure may show the parent alone.
Examples of compounds with documented relative viability follow.
Property measured: relative viability (%)

- O=C(NOCC1CC1)c1ccc(F)c(F)c1Nc1ccc(I)cc1Cl: 97.6
- CC[C@]1(O)C[C@H]2CN(CCc3c([nH]c4ccccc34)[C@@](C(=O)OC)(c3cc4c(cc3OC)N(C=O)[C@H]3[C@@](O)(C(=O)OC)[C@H](OC(C)=O)[C@]5(CC)C=CCN6CC[C@]43[C@@H]65)C2)C1 [Vincristine Sulfate]: 48.3
- O=C(c1ccccc1)c1ccc2n1CCC2C(=O)O (centres undefined): 96.9
- Cc1ccc(F)c(NC(=O)Nc2ccc(-c3cccc4[nH]nc(N)c34)cc2)c1: 97.8
- Cc1[nH]c(/C=C2\C(=O)Nc3ccccc32)c(C)c1CCC(=O)O: 101
- CC1(C)CCC(c2ccc(Cl)cc2)=C(CN2CCN(c3ccc(C(=O)NS(=O)(=O)c4ccc(N[C@H](CCN5CCOCC5)CSc5ccccc5)c(S(=O)(=O)C(F)(F)F)c4)cc3)CC2)C1: 101
- CC1(C)CC(=O)c2c(C(F)(F)F)nn(-c3ccc(C(N)=O)c(N[C@H]4CC[C@H](OC(=O)CN)CC4)c3)c2C1: 108
- COc1ccc(S(=O)(=O)Nc2cccnc2Nc2ccc(O)cc2)cc1: 108
- CN1CC[C@H](c2c(O)cc(O)c3c(=O)cc(-c4ccccc4Cl)oc23)[C@H](O)C1 [Flavopiridol HCl]: 91.4
